Hey, just so you know, these numbers are from ChEMBL document CHEMBL4425113.

- Species on record: Homo sapiens
- Protocol details: Selectivity ratio of Ki for human CB2 receptor to Ki for human CB1 receptor
// reported Ratio Ki for each item listed

Worked cases, answers included:
Structure smiles | Ratio Ki
CCCCCCC(C)(C)c1cc(O)c2c(c1)OC(C)(C)c1cnn(CCO)c1-2 | 19.1
CCCCCCC(C)(C)c1cc(O)c2c(c1)OC(C)(C)c1cnn(CC)c1-2 | > 8000
CCCCCCC(C)(C)c1cc(OCc2ccccc2)c2c(c1)OC(C)(C)c1cn[nH]c1-2 | 4.2
CCCCCCC(C)(C)c1cc(O)c2c(c1)OC(C)(C)c1cnn(-c3ccc(Cl)cc3Cl)c1-2 | > 7500
CCCCCCC(C)(C)c1cc(O)c2c(c1)OC(C)(C)c1cn(CC)nc1-2 | > 2000
CCCCCCC(C)(C)c1cc(O)c2c(c1)OC(C)(C)c1cn[nH]c1-2 | > 1400

q: Form field: reported Ratio Ki of CCCCCCC(C)(C)c1cc(O)c2c(c1)OC(C)(C)c1cn(C)nc1-2
a: > 2500

----------
- Experimental target: UniProtKB P34972
- Protocol details: Displacement of [3H]-CP55940 from human CB2 receptor expressed in HEK293 cell membranes after 90 mins by liquid scintillation counting method
Consider the cut-off 90 nM. If the recorded Ki is strictly smaller, the label is class 1; if not, the label is class 0.

Reference set, count: 3
Structure smiles | Experimental target | Class label
CCCCCCC(C)(C)c1cc(O)c2c(c1)OC(C)(C)c1cnn(C3CCCCC3)c1-2 | UniProtKB P34972 | class 1
CCCCCCC(C)(C)c1cc(OCc2ccccc2)c2c(c1)OC(C)(C)c1cn(C)nc1-2 | UniProtKB P34972 | class 0
CCCCCCC(C)(C)c1cc(OC)c2c(c1)OC(C)(C)c1cnoc1-2 | UniProtKB P34972 | class 1

q: Regarding CCCCCCC(C)(C)c1cc2c(c3c1CCCO3)-c1nn(CC)cc1C(C)(C)O2 , kindly confirm whether its Ki is beneath 90 nM.
a: class 0

q: Next entry: CCCCCCC(C)(C)c1cc(OC)c2c(c1)OC(C)(C)c1cn[nH]c1-2
a: class 1

q: Next entry: CCCCCCC(C)(C)c1cc(OCCCO)c2c(c1)OC(C)(C)c1cn[nH]c1-2
a: class 1

q: Next entry: CCCCCCC(C)(C)c1cc(OCc2ccccc2)c2c(c1)OC(C)(C)c1cnn(-c3ccc(Cl)c(Cl)c3)c1-2
a: class 0

q: Next entry: CCCCCCC(C)(C)c1cc(O)c2c(c1)OC(C)(C)c1cn(CO)nc1-2
a: class 1

q: Next entry: CCCCCCC(C)(C)c1cc(OC)c2c(c1)OC(C)(C)c1cnn(-c3ccc(Cl)c(Cl)c3)c1-2
a: class 0

----------
- Experimental target: Cannabinoid receptor 2 (Homo sapiens, UniProt P34972)
- Sequence (P34972 whole entry): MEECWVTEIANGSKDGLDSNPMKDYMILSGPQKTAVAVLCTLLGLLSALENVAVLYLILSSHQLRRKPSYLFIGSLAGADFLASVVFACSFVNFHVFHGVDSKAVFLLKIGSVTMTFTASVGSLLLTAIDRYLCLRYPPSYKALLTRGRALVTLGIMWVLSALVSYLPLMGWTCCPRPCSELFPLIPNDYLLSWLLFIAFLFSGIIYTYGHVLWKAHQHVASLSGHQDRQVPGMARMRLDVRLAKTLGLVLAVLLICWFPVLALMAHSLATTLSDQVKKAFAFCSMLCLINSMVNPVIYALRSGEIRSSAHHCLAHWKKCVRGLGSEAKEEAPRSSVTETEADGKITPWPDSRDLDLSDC
- Protocol details: Displacement of [3H]-CP55940 from human CB2 receptor expressed in HEK293 cell membranes after 90 mins by liquid scintillation counting method
Measure name: pKi
Hey, just a heads up that pKi is the negative log base 10 of the concentration in molar.

Worked cases, answers included:
Structure smiles | Measure name | Result number
CCCCCCC(C)(C)c1cc(OC)c2c(c1)OC(C)(C)c1cn(C)nc1-2 | pKi | 7.18
CCCCCCC(C)(C)c1cc(OCCCO)c2c(c1)OC(C)(C)c1cnoc1-2 | pKi | 7.18
CCCCCCC(C)(C)c1cc(OCCCBr)c2c(c1)OC(C)(C)c1cn(C)nc1-2 | pKi | 7.11

q: Form field: reported pKi of CCCCCCC(C)(C)c1cc(OCc2ccccc2)c2c(c1)OC(C)(C)c1cn[nH]c1-2
a: 7.03

----------
- Experimental target: Cannabinoid receptor 1 (Homo sapiens)
- Sequence (P21554 whole entry): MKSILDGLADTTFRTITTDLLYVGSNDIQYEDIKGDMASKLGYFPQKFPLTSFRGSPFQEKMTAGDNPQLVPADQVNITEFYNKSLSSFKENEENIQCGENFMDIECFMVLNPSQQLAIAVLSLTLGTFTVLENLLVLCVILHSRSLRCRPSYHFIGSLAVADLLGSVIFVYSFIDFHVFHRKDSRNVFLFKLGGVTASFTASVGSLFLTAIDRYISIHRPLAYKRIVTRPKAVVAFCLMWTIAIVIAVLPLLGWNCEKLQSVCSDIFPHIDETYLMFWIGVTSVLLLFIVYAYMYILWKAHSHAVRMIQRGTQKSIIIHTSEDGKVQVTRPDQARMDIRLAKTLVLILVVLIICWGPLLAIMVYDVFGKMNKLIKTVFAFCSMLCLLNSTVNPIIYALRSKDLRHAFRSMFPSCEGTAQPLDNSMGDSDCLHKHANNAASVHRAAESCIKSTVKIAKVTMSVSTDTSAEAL
- Protocol details: biochemical
- Format: cell-based, HEK293
Measure name: Ki

Structure smiles | Experimental target | Measure name | Result
CCCCCCC(C)(C)c1cc(OCCCO)c2c(c1)OC(C)(C)c1cnn(-c3ccc(Cl)c(Cl)c3)c1-2 | Cannabinoid receptor 1 (Homo sapiens) | Ki | > 40 µM
CCCCCCC(C)(C)c1cc(OC)c2c(c1)OC(C)(C)c1cnoc1-2 | Cannabinoid receptor 1 (Homo sapiens) | Ki | > 40 µM

Now let's try a different one.
q: Missing value: Ki, Cannabinoid receptor 1 (Homo sapiens), entry CCCCCCC(C)(C)c1cc(OCCCO)c2c(c1)OC(C)(C)c1cnn(-c3ccc(Cl)cc3Cl)c1-2 . Fill in?
a: > 40 µM

----------
- Organism: Homo sapiens
- Protocol details: Selectivity ratio of Ki for human CB1 receptor to Ki for human CB2 receptor
Measure name: Ratio Ki

Worked cases, answers included:
Structure smiles | Ratio Ki
CCCCCCC(C)(C)c1cc2c(c3c1CCCO3)-c1nn(CC)cc1C(C)(C)O2 | > 330
CCCCCCC(C)(C)c1cc(OCCCO)c2c(c1)OC(C)(C)c1cn(C)nc1-2 | > 110

Now let's try a different one.
q: Form field: reported Ratio Ki of CCCCCCC(C)(C)c1cc(OCC)c2c(c1)OC(C)(C)c1cnn(-c3ccc(Cl)c(Cl)c3)c1-2
a: > 11.3

----------
// reported Ratio Ki for each item listed
- Organism: Homo sapiens
- Protocol details: Selectivity ratio of Ki for human CB1 receptor to Ki for human CB2 receptor

Worked cases, answers included:
Structure smiles | Ratio Ki
CCCCCCC(C)(C)c1cc2c(c3c1CCCO3)-c1c(cnn1CC)C(C)(C)O2 | > 17.7
CCCCCCC(C)(C)c1cc(OCCCO)c2c(c1)OC(C)(C)c1cn(CC)nc1-2 | > 411

q: Form field: reported Ratio Ki of CCCCCCC(C)(C)c1cc(OC)c2c(c1)OC(C)(C)c1cnoc1-2
a: > 3100

q: Next entry: CCCCCCC(C)(C)c1cc(OCc2ccccc2)c2c(c1)OC(C)(C)c1cnn(-c3ccc(Cl)c(Cl)c3)c1-2
a: > 10.7
